Where these numbers come from: PubChem BioAssay AID455

# test.name: enhancers of VCAM-1 display on endothelial cells, cell-based, plate reader, pooled HUVEC, TNFa stimulus (AID 455)
# cond: HUVEC TNFa-induced VCAM-1 immunofluorescence, 100% set by best visually verified hit,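 tested at 5 µM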
Screen size: about 10,000 compounds; about 20 (0.2%) were called active.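 Rule for the calls: active = a compound raising TNF-alpha-driven VCAM-1 surface staining, with its hit status upheld on visual or statistical review; inactive = the rest, including hits rejected on review.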 For the sample, actives were picked, then their nearest neighbours and some compounds at random.
Pick one and only one: y = active, n = inactive

Solved cases (5 shown):
molecule | answer.label
Cc1ccc(Br)cc1S(=O)(=O)N1CCN(c2ccccc2)CC1 | n
COc1ccc(S(=O)(=O)NCCOc2ccccc2)cc1OC | n
CCCCSc1nnc([C@H](C)NC(=O)OC(C)(C)C)o1 | n
O=c1cc(C(F)F)oc2c1ccc1ccccc12 | y
COc1ccc(S(=O)(=O)Nc2ccc(S(=O)(=O)N3CCCCC3)cc2)cc1OC | n

Please let me know the test result on file for COc1ccc(-c2oc3ncn(CCN4CCOCC4)c(=N)c3c2-c2ccc(OC)cc2)cc1 . n

---

# test.name: enhancers of VCAM-1 display on endothelial cells, cell-based, plate reader, pooled HUVEC, TNFa stimulus (AID 455)
# cond: HUVEC TNFa-induced VCAM-1 immunofluorescence, 100% set by best visually verified hit,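 tested at 5 µM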
Hit rate of the full screen: of about 10,000 compounds, about 20 (0.2%) were called active.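 Rule for the calls: active = a compound raising TNF-alpha-driven VCAM-1 surface staining, with its hit status upheld on visual or statistical review; inactive = the rest, including hits rejected on review.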 The entries come from a sample that favours actives as a whole.
Pick one and only one: YES (active), NO (inactive)

Solved cases (10 shown):
molecule | answer.label
O=C(CCN1C(=O)COc2ccccc21)NCCN1CCN(c2cccc(Cl)c2)CC1 | NO
S=C(c1ccc(N2CCOCC2)cc1)N1CCCCC1 | NO
COc1cc2c(cc1OC)-c1cc(OCc3cccnc3)nc(=O)n1CC2 | NO
O=C(c1ccc(S(=O)(=O)N2CCOCC2)cc1)N(c1ccc(F)cc1)C1C=CS(=O)(=O)C1 (stereo unspecified) | NO
CCOC(=O)C1=C(C)NC(=O)NC1c1ccc(OCCO)c(OC)c1 (stereo unspecified) | NO
Cc1ccc(C)c(CSc2nnc(CCN)o2)c1 | NO
CCOC(=O)C1=C(c2ccccc2)NC(=O)NC1c1ccc(N(C)C)cc1 (stereo unspecified) | YES
CCOC(=O)C1=C(C)NC2=C(C(=O)CC(C)(C)C2)C1c1ccc(N(C)C)cc1 (stereo unspecified) | NO
Cc1ccc(C)c(N2CCN(C(=O)c3ccc(CS(=O)(=O)c4ccccc4C)o3)CC2)c1 | NO
O=C(CSc1nnnn1-c1ccccc1)Nc1ccc(Cl)cc1 | NO

Please let me know the test result on file for CCOc1ccccc1N1C(=O)CC(Sc2ncccc2C(=O)O)C1=O (stereo unspecified) . NO

---

# test.name: enhancers of VCAM-1 display on endothelial cells, cell-based, plate reader, pooled HUVEC, TNFa stimulus (AID 455)
# cond: HUVEC TNFa-induced VCAM-1 immunofluorescence, 100% set by best visually verified hit,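 tested at 5 µM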
Among all 10,000 compounds or so, about 20 (0.2%) were called active.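 The calls were made as follows: active = a compound raising TNF-alpha-driven VCAM-1 surface staining, with its hit status upheld on visual or statistical review; inactive = the rest, including hits rejected on review.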 The sample as a whole holds a higher share of actives than the screen did.
Pick one and only one: active, inactive

compound | answer.label
Cc1ccc2[nH]c(=O)c(C(c3nnnn3CCc3ccccc3)N3CCOCC3)cc2c1 (stereo not drawn) | inactive
CCCC(=O)Nc1cc(C)c2c(=O)oc3ccccc3c2n1 | inactive
Cc1cc(OCC(O)CN2CCN(CCO)CC2)ccc1C(C)C (stereo not drawn) | inactive
O=c1c2[nH]c3ccccc3c2ncn1CCCn1ccnc1 | inactive
O=C(NCCN1CCOCC1)NC1(C(F)(F)F)Oc2ccc(Cl)cc2O1 (stereo not drawn) | inactive
COc1ccc(C(=O)N2CCCc3ccccc32)cc1 | inactive
c1ccc(Cn2nnnc2C(c2cccs2)N2CCSCC2)cc1 (stereo not drawn) | inactive
Nc1nc(N2C(=O)C3CC=CCC3C2=O)nn1-c1ccccc1 (stereo not drawn) | inactive
CCC(=O)N1CCc2cc(S(=O)(=O)CCC(=O)Nc3nc(C)cs3)ccc21 | inactive
CC1/C(=N/O)C(CN(C)C)C2CC1C2(C)C (stereo not drawn) | inactive

Please let me know the test result on file for CC(=O)c1cccc(NC(=O)N2C3CCC2CC(O)(c2cccnc2)C3)c1 (stereo not drawn) . inactive

Please let me know the test result on file for CCOc1ccc(N(C(C)=O)C2C=CS(=O)(=O)C2)cc1 (stereo not drawn) . inactive

Please let me know the test result on file for COc1cccc(NC(=O)N2CCN(c3cccc(C)c3C)CC2)c1 . active
